- Target Under Test: HLA DQ molecule DQB1*0202 (human)
- Assay Protocol: inhibition of radiolabeled peptide binding to purified HLA DQ
Please go through the items and note down their IC50.
Field format: number, assumed µM, no unit text.

Q: What measured IC50 goes with QKLMEDINVGFKAAV [Poa p 5 peptide, position 51 (Peptide ID 3324.1580)] ?
A: 8.07

Q: Could you tell me which IC50 is on file for FKAAVAAAAGAPPAD [Poa p 5 peptide, position 61 (Peptide ID 3324.1575)] ?
A: 25.7

Q: Would you mind telling me what IC50 value was observed for EGTVDFIFGEARSLY [Sal k 1 1 peptide, position 191 (Peptide ID 3324.1590)] ?
A: 3.12
